Molecular target: human recombinant 5-HT2c receptor (Homo sapiens, UniProt P28335)
Sequence (P28335 33-458): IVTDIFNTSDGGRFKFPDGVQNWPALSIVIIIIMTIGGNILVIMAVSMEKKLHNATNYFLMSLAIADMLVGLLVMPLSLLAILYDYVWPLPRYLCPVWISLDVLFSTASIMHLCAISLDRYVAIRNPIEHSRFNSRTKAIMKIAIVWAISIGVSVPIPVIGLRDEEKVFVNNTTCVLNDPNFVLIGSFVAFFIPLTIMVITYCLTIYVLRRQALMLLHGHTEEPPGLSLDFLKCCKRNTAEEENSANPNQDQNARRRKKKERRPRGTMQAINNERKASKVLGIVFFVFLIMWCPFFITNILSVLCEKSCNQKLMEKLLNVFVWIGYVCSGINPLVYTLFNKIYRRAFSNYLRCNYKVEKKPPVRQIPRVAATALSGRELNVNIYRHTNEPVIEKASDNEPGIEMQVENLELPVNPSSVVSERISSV
Test: 3H-meselurgine radioligand binding SPA, membranes from Swiss 3T3 cells (Method 2)
Settings: 3H-meselurgine displacement, Cheng-Prusoff; Swiss 3T3 membranes; read-out: Binding Affinity Ki
pKi: −log10 of the molar value. Structures can show the parent of a compound that is named as a salt.
MEASURED_ENDPOINT: pKi

Example cases with answers are listed next.
c1ccc(Cc2nc3c(c(C4CC4)n2)CCNCC3)cc1	6.98
Clc1cccc(Cc2ncc3c(n2)CCNCC3)c1	7.08
CCOc1nc(C(C)c2ccccc2)nc2c1CCNCC2 (stereo not drawn)	7.31
N#CC1CCCN(c2nc(Cc3ccccc3)nc3c2CCNCC3)C1 (stereo not drawn) [Example 40, hydrochloride]	6.38
CCc1nc(Cc2ccccc2)nc2c1CCNCC2	6.85

(A) CC(C)(c1ccccc1)c1ncc2c(n1)CCNCC2
(B) c1ccc(Cc2nc3c(c(N4CCCCC4)n2)CCNCC3)cc1 [Example 29, hydrochloride]
[in] Returns: the label, A or B , whose recorded pKi is the lower number. Provide the label of your selected option as the answer.
[out] A
(A: 6.40, B: 6.75)

(a) Cc1nc(Cc2ccccc2)nc2c1CCNCC2
(b) C1CCN(c2nc3c(c(N4CCSCC4)n2)CCNCC3)C1
(c) CC(CO)Nc1nc(Cc2ccccc2)nc2c1CCNCC2 (stereo not drawn) [Example 33, hydrochloride]
[in] hey, can you rank those molecules up there by pKi? biggest number first please Please list the labels in the order you were asked to rank them.
[out] b, c, a
(b: 7.38, c: 6.90, a: 6.38)

* * *

Molecular target: human recombinant 5-HT2c receptor (Homo sapiens)
Construct: expressed in transfected cells; host or cells: CHO K1 (Chinese hamster ovary), stably transfected
Experiment: FLIPR fluorescent Ca2+ mobilisation agonist assay in CHO K1 cells (Method 1)
Type: cell-based
Details: agonist affinity, FLIPR
Where a name gives a salt, the structure may show the parent alone.
MEASURED_ENDPOINT: EC50 (nM)

Example cases with answers are listed next.
CN(C)c1nc(N(C)CC2CC2)nc2c1CCNCC2 [Example 104]	282
c1ccc(Cc2nc3c(c(NCC4CCCO4)n2)CCNCC3)cc1 (stereo not shown) [Example 19, hydrochloride]	344
Cc1ccccc1Cc1ncc2c(n1)CCNCC2 [Example 66]	332
COc1nc(C(F)(F)c2ccccc2)nc2c1CCNCC2 [Example 72A, hydrochloride]	35.6
CCOc1nc(C(C)c2ccccc2)nc2c1CCNCC2 (stereo not shown) [Example 59]	107
c1ccc(Cc2nc3c(c(C4CC4)n2)CCNCC3)cc1 [Example 53]	293
CCN(C)c1nc2c(c(N(C)C)n1)CCNCC2 [Example 100]	122
CN(C)c1ncc2c(n1)CCNCC2 [Example 50, hydrochloride]	481
c1ccc(Cc2nc3c(c(-n4ccnc4)n2)CCNCC3)cc1 [Example 55]	263
CC1CNCCc2cnc(Cc3ccccc3)nc21 (single isomer, unassigned) [47 (Peak 1)]	453

(A) FC(F)(F)c1cccc(Cc2ncc3c(n2)CCNCC3)c1 [Example 63]
(B) c1ccc(Cc2nc3c(c(OCCc4ccncc4)n2)CCNCC3)cc1 [Example 79]
[in] From the recorded data, which exceeds the other in EC50: A or B ? Provide the label of your selected option as the answer.
[out] A

(I) c1ccc(Cc2nc3c(c(NCCn4cccn4)n2)CCNCC3)cc1 [Example 27, hydrochloride]
(II) CC1CCCN(c2nc(Cc3ccccc3)nc3c2CCNCC3)C1 (stereo not shown) [Example 30, hydrochloride]
(III) C1Cc2nc(N3CCOCC3)nc(N3CCSCC3)c2CCN1 [Example 96]
[in] Let's sort these by EC50, smallest first. Go ahead? Please list the labels in the order you were asked to rank them.
[out] I, III, II
(I: 57.2 nM, III: 311 nM, II: 984 nM)

(a) CCNc1nc(N2CCc3ccccc3C2)nc2c1CCNCC2 [Example 87]
(b) C[C@H]1COCCN1c1nc(Cc2ccccc2)nc2c1CCNCC2 [Example 45, hydrochloride]
(c) CN(Cc1ccccc1)c1nc2c(c(N3CCOCC3)n1)CCNCC2 [Example 105]
[in] Let's sort these by EC50, smallest first. Go ahead? Please list the labels in the order you were asked to rank them.
[out] a, b, c
(a: 48.3 nM, b: 69.5 nM, c: 202 nM)

* * *

Biological target: human recombinant 5-HT2c receptor (Homo sapiens, UniProt P28335)
Construct: expressed in transfected cells; host or cells: CHO K1 (Chinese hamster ovary), stably transfected
Assay: FLIPR fluorescent Ca2+ mobilisation agonist assay in CHO K1 cells (Method 1)
Type: cell-based
Details: CHO-K1, efficacy, percentage of mean maximal response to 10 μM 5-HT
Where a name gives a salt, the structure may show the parent alone.
MEASURED_ENDPOINT: Emax (%)

c1ccc(Cc2nc3c(c(-n4ccnc4)n2)CCNCC3)cc1	72.6
CN(C)c1nc(N(C)CC2CC2)nc2c1CCNCC2	69
Cc1nc(Cc2ccccc2)nc2c1CCNCC2	71.4
N#Cc1ccc(CCOc2nc(Cc3ccccc3)nc3c2CCNCC3)cc1	90.1
C1Cc2nc(N3CCOCC3)nc(N3CCSCC3)c2CCN1	66.9
OCCNc1nc(Cc2ccccc2)nc2c1CCNCC2 [Example 23, hydrochloride]	72.6
CCN(C)c1nc(N2CCSCC2)nc2c1CCNCC2	77.3
CCN(C)c1nc2c(c(N(C)C)n1)CCNCC2	51.2

(A) CN(C)c1nc(N2CCOCC2)nc2c1CCNCC2
(B) CC(CO)Nc1nc(Cc2ccccc2)nc2c1CCNCC2 (stereo not shown) [Example 33, hydrochloride]
(C) CC(C)COc1nc(Cc2ccccc2)nc2c1CCNCC2
[in] Let's sort these by Emax, smallest first. Go ahead? Please list the labels in the order you were asked to rank them.
[out] C, B, A
(C: 34%, B: 58.5%, A: 84.6%)

(a) Fc1ccccc1Cc1ncc2c(n1)CCNCC2
(b) CN(C)c1nc2c(c(N(C)C)n1)CCNCC2
[in] From the recorded data, which exceeds the other in Emax: a or b ? Provide the label of your selected option as the answer.
[out] a

* * *

Target: human recombinant 5-HT2c receptor (Homo sapiens)
Construct: expressed in transfected cells; host or cells: CHO K1 (Chinese hamster ovary), stably transfected
Sequence (P28335 33-458): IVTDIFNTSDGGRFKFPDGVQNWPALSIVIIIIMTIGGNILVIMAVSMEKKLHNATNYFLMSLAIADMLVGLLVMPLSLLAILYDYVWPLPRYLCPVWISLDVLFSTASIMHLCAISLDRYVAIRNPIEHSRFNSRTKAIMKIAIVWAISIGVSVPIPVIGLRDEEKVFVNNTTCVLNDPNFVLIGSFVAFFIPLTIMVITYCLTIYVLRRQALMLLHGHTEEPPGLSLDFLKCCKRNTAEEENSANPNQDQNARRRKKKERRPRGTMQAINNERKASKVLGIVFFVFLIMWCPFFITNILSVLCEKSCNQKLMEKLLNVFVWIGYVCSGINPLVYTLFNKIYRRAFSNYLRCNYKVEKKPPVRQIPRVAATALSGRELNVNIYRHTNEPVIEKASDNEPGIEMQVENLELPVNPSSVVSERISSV
Assay: FLIPR fluorescent Ca2+ mobilisation agonist assay in CHO K1 cells (Method 1)
Type: cell-based
Conditions: CHO-K1, efficacy, percentage of mean maximal response to 10 μM 5-HT
Structures can show the parent of a compound that is named as a salt.
MEASURED_ENDPOINT: Emax (%)

(I) N#CC1CCCN(c2nc(Cc3ccccc3)nc3c2CCNCC3)C1 (centres unmarked) [Example 40, hydrochloride]
(II) Fc1ccc(Cc2ncc3c(n2)CCNCC3)cc1
[in] From the recorded data, which exceeds the other in Emax: I or II ? Provide the label of your selected option as the answer.
[out] II
(II: 59.6%, I: 40.6%)

* * *

Target: human recombinant 5-HT2c receptor (Homo sapiens)
Construct: expressed in transfected cells; host or cells: CHO K1 (Chinese hamster ovary), stably transfected
Assay: FLIPR fluorescent Ca2+ mobilisation agonist assay in CHO K1 cells (Method 1)
Format: cell-based
Details: agonist affinity, FLIPR
Structures can show the parent of a compound that is named as a salt.
MEASURED_ENDPOINT: EC50 (nM)

Example cases with answers are listed next.
c1ccc(Cc2nc3c(c(OCCc4ccccn4)n2)CCNCC3)cc1	8.61
c1ccc(Cc2nc3c(c(N4CCCCC4)n2)CCNCC3)cc1 [Example 29, hydrochloride]	962
CN1CCC[C@H]1COc1nc(Cc2ccccc2)nc2c1CCNCC2	138
FC(F)(F)CCCOc1nc(Cc2ccccc2)nc2c1CCNCC2	395
CO[C@H]1CCN(c2nc(Cc3ccccc3)nc3c2CCNCC3)C1 [Example 26, hydrochloride]	417

(1) CC(c1ccccc1)c1ncc2c(n1)CCNCC2 (stereo not shown)
(2) c1ccc(CCNc2nc3c(c(N4CCSCC4)n2)CCNCC3)cc1
[in] From the recorded data, which exceeds the other in EC50: 1 or 2 ? Provide the label of your selected option as the answer.
[out] 2

(P) CCN(C)c1nc(N2CCOCC2)nc2c1CCNCC2
(Q) OC(c1ccccc1)c1ncc2c(n1)CCNCC2 (single isomer, unassigned; stereoisomer 1)
(R) CC(COc1nc(Cc2ccccc2)nc2c1CCNCC2)N(C)C (stereo not shown)
(S) CCN(C)c1nc(N2CCSCC2)nc2c1CCNCC2
[in] hey, can you rank those molecules up there by EC50? biggest number first please Please list the labels in the order you were asked to rank them.
[out] Q, R, P, S
(Q: 643 nM, R: 338 nM, P: 229 nM, S: 90 nM)

All figures here come from patent US7928099B2.
